TESTED_SYSTEM: HLA-A2 on T2 cells pulsed with ITCH (807-815) peptide (human)
ASSAY_NAME: flow cytometry, 10 ug/ml, pulsed T2 cells
So I've got a bunch of binders here, and I need their ratio of MFI, pulsed to unpulsed values.
Please reply with the bare figure in ratio and do not write the unit itself.

Which ratio of MFI, pulsed to unpulsed value is on record for mAb28105P (antibody, human IgG4 S228P, kappa, V domains shown) VH: EVQLVESGGGVVQPGGSLRLSCEASGFIFDDYAMHWVRQAPGKGLEWVSLISGDGDIIYYADSVKGRFTISRDNSKNSLYLQMNSLIIEDTALYYCAKDWVFGVVMTHYWYFGLDVWGQGTTVTVSS VL: DIQMTQSPSSLSASEGDRVTITCRASQSISTYLNWYQQKPGKAPKLLIYGASSLQSGVPSRFSGSGSGTDFTLTISSLQPEDFATYYCQQSYSTPPITFGQGTKVEIKR ?
1

Dear colleague, I am looking for the recorded ratio of MFI, pulsed to unpulsed of the following binder: mAb29814P (antibody, human IgG4 S228P, kappa, V domains shown) VH: QVQLVESGGGVVQPGRSLRLSCVASGFTFSSYGMHWVRQAPGKGLEWVAVIWYVGSNKYYGDSVKGRFTISRDNSKNTLYLQMNSLRAEDTAVYYCARDLIADRPGYYYNGMDVWGQGTTVTVSS VL: EIVMTQSPVTLFVSPGERATLSCRASQSVNTNLAWYQQQPGQAPRLLIHGASTRPTGVPARFSGSGSGTEFTLIISSLQSEDFAVYYCQQYNNWPPWTFGQGTKVEIKR
0.9
